# ASSAY OVERVIEW: Ketorolac concentration in cerebrospinal fluid (HPLC)
# Format: in vivo, humans
# COND: human, other: intrathecal (lumbar puncture), 0.5 mg; 0.50 mg i.t.; lumbar CSF 60 min after injection
OBSERVED PROPERTY: concentration at 60 min (ng/mL)

{"MOLECULE": "O=C(c1ccccc1)c1ccc2n1CCC2C(=O)O (stereo not shown) [ketorolac]", "OBSERVED PROPERTY": "concentration at 60 min", "MEASUREMENT": 13400}
